Target: Cholesteryl ester transfer protein (Oryctolagus cuniculus, UniProt P22687)
Sequence (P22687 whole entry): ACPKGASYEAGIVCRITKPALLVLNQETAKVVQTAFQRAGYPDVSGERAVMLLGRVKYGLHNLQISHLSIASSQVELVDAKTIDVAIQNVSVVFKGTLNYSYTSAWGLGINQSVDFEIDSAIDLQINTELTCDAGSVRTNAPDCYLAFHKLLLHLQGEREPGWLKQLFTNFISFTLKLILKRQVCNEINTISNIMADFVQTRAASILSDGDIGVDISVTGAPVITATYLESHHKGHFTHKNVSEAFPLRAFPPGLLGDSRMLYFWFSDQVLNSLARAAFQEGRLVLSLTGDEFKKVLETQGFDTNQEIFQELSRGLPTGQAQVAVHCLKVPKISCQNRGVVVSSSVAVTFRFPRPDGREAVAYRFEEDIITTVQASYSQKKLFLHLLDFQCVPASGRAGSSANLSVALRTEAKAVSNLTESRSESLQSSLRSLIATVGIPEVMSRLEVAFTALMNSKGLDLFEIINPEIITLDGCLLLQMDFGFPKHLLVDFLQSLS
Experiment: Inhibition of CETP in rabbit serum after 1 hr by fluorescent cholesteryl esters transfer assay
Conditions: read-out: IC50
property.label: pIC50
Please report pIC50 as the negative decimal logarithm of the molar concentration, giving only the number.

>>> value("OC(CN(Cc1cccc(Oc2ccccc2)c1)c1cccc(F)c1)C(F)(F)F (centres undefined)")
4.82
>>> value("OC(CN(Cc1cccc(-c2ccncc2)c1)c1cccc(Oc2ccccc2)c1)C(F)(F)F (centres undefined)")
5.20
>>> value("OC(CN(Cc1cccc(OC(F)(F)C(F)F)c1)c1cccc(OC2CCCCC2)c1)C(F)(F)F (centres undefined)")
5.59
>>> value("COc1ccc(Cl)cc1C(=O)NCCc1ccc(S(=O)(=O)NC(=O)NC2CCCCC2)cc1 [GLYBURIDE]")
3.62
>>> value("O=[N+]([O-])c1ccccc1Oc1cccc(N(Cc2cccc(OC(F)(F)C(F)F)c2)CC(O)C(F)(F)F)c1 (centres undefined)")
6.40
>>> value("CCc1cc(Oc2cccc(N(Cc3cccc(OC(F)(F)F)c3)C[C@@H](O)C(F)(F)F)c2)ccc1Cl")
7.46
>>> value("OC(CN(Cc1cccc(OC(F)(F)F)c1)Cc1cccc(OC(F)(F)F)c1)C(F)(F)F (centres undefined)")
4.64

Request body: readout pIC50, system Cholesteryl ester transfer protein (Oryctolagus cuniculus, UniProt P22687), query CCN(CC)c1ccc(Nc2ccc(CC(=O)c3ccccc3)cc2)cc1 . Return the value.
5.19

====

Target: Cholesteryl ester transfer protein (Oryctolagus cuniculus) (UniProt P22687)
Sequence (whole entry): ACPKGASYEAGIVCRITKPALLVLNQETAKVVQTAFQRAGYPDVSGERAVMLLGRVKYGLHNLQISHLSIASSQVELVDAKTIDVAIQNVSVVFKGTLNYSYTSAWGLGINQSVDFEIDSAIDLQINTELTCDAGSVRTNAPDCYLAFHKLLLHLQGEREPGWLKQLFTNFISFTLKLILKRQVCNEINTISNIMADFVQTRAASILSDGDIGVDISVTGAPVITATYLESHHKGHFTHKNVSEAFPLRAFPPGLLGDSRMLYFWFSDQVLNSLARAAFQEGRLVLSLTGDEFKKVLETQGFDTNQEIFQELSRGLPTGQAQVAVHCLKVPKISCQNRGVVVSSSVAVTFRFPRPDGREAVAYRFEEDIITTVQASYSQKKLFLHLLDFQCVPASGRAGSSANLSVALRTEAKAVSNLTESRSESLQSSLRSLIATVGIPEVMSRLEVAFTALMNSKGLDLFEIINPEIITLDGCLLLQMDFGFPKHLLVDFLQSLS
Assay: Inhibition of CETP in rabbit serum at 10 uM after 1 hr by fluorescent cholesteryl esters transfer assay
Quick rule for you: inhibition at 10% or higher means t, lower means f.

Here's what some known entries look like.
>>> assigned_category("Cc1ccc(Nc2ccc(Nc3ccc(C)cc3)c3c2C(=O)c2cc(Cl)c(Cl)cc2C3=O)cc1")
"t"
>>> assigned_category("Cc1ccc(NC(=O)c2ccc(C(=O)Nc3ccc(C)c(Cl)c3)cc2)cc1Cl")
"f"
>>> assigned_category("O=C(c1ccccc1)c1cccc(/N=C/c2ccc(C(F)(F)F)cc2)c1")
"t"

Confirm if inhibition reported for the compound CC(C)OC(=O)CCC/C=C\C[C@@H]1[C@@H](/C=C/[C@@H](O)COc2cccc(C(F)(F)F)c2)[C@H](O)C[C@@H]1O is 10% or above.
f

COc1ccc(/C=N/c2cccc(C(=O)c3ccc(OC)cc3)c2)cc1 , same question.
t

O=c1oc2ccccc2c(O)c1C(CC(O)c1ccc(-c2ccc(Br)cc2)cc1)c1ccccc1 (centres undefined) , same question.
f

COc1cc(N)c(Cl)cc1C(=O)NC1CCN(CCCOc2ccc(F)cc2)CC1OC (centres undefined) , same question.
t

O=C(CCCCC(=O)Nc1c(I)cc(I)c(C(=O)O)c1I)Nc1c(I)cc(I)c(C(=O)O)c1I , same question.
t

Cc1cc[n+](CC(=O)CCc2ccc(C(=O)C[n+]3ccc(C)cc3)cc2)cc1 , same question.
f
